Quick reference for TGI among some compounds
System: HCC-2998 colon
experiment.notes: NCI tumour cell line growth inhibition, 48 h
Report only the number, with the unit µM understood.

Worked set:
| compound | endpoint.unit | observed.result |
| --- | --- | --- |
| NC(N)=N/N=C\c1c(-c2cccc([N+](=O)[O-])c2)nc2sc(Cl)cn12 | µM | 4.92 |
| CC(C)=C[C@@H]1C[C@H](C)[C@H]2CC[C@H](C)c3c(O)c(OC4OCC(O)C(O)C4O)c(C)c1c32 (some centres not stated) | µM | 19.8 |
| COc1cccc(C2c3cc4c(cc3OC(NNc3ccccc3)C2C)OCO4)c1OC (configuration not stated) | µM | 6.79 |

Incoming: // lookup TGI for CC(C)S(=O)(=O)ON1C(=O)c2ccc(N(C)C)cc2C1=O
Outgoing: 18

Incoming: // next record CCN1C2=C(SC(=S)C1=C1SC(C(=O)OC)=C(C(=O)OC)S1)SC(=Nc1ccc(OC)cc1)C2=O
Outgoing: 3.66

Incoming: One more compound: CC(=O)O[C@H]1C(=O)[C@@]2(C)[C@H]([C@H](OC(=O)C3CCCCC3)[C@]3(O)C[C@H](OC(=O)[C@H](O)[C@@H](NC(=O)OC(C)(C)C)c4ccccc4)C(C)=C1C3(C)C)[C@]1(OC(C)=O)CO[C@@H]1C[C@@H]2O
Outgoing: 0.248

Incoming: Try this compound next: O=C1C=C(Nc2cccnc2)c2ccccc2C1=O
Outgoing: 30.5

Incoming: # iterate: CNC[C@@H](NC(=O)c1ccc(-c2nc([C@H]3CC[C@H](O)[C@@H](F)C3)cnc2N)cc1F)c1cc(F)cc(Br)c1
Outgoing: 31.8

###

Tested on: BT-549 breast
experiment.notes: NCI tumour cell line growth inhibition, 48 h; in the data active = GI50 below about 0.43 µM; inactive = the rest
Result category, one only: YES (active), NO (inactive)

Please review the following examples before continuing.
| compound | cat |
| --- | --- |
| O=C1C=C2C(=CCOC2O)O1 (stereo unspecified) | NO |
| Cc1ccc(/C(=C/C=C(/C#N)C(N)=O)Sc2ncnn2C)cc1 | NO |

Incoming: What did this assay record as the result for Cc1oc2nc[nH]c(=O)c2c1C(=O)/C=C/c1ccc(Br)cc1 ?
Outgoing: NO

Incoming: Repeat for the following compound: CN1C(=O)C23CC4(C56CC78SSC(CO)(C(=O)N7C5Nc5ccccc56)N(C)C8=O)c5ccccc5NC4N2C(=O)C1(CO)SS3 (stereo unspecified)
Outgoing: YES

Incoming: Now the compound Cc1cnc(NC2CCOCC2)nc1-n1cnc(C(=O)N[C@H](CN)c2cc(F)cc(Cl)c2)c1
Outgoing: NO

Incoming: Let us now turn to COc1ccc2[nH]c(=O)c(/C=C/C(=O)c3ccccc3OC)cc2c1
Outgoing: YES

Incoming: Quick one: C/C(=N\NC(=O)c1ccccc1N)c1ccccc1O
Outgoing: NO

Incoming: Next up: c1ccc(-c2cccc(-c3ccccn3)n2)nc1
Outgoing: YES

Incoming: Can you check CC(C)CNC(=O)c1ccc(NC(=O)N(CC(C)C)C(=O)c2ccc(N)c(OCCCN)c2)c(OCCCN=C(N)N)c1 next?
Outgoing: NO

Incoming: Then this compound: CN1CCN(Cc2ccc(NC(=O)c3cncc(C#Cc4cnc5ccc(Cl)nn45)c3)cc2C(F)(F)F)CC1
Outgoing: NO

Incoming: Param item: CN(C)c1ccc(N=Nc2ccc(Br)cn2)c(O)c1
Outgoing: NO

Attribution: PubChem BioAssay (NCI)
